assay: chemical genetic growth profiling, strain panel (AID 1159580);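 further: tested at 20 µM; growth read once vehicle control cultures reached saturation at 30 °C; lower values mean less growth of the strain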; settings: S. cerevisiae deletion strains, growth OD, locus YOL006C, strain TOP1
Hit rate of the full screen: of about 5,500 compounds, about 2,000 (36%) were called active. Inconclusive results (about 18%) are left out. No stated cut-off is given here; in the data, active means normalized growth mostly below about 0.91 (no sharp cut-off); inconclusive means no clear call, values can overlap the other calls; inactive means mostly above about 0.92. The list shows a part of the results.
Entry note: the call must match one of TRUE for active, FALSE for inactive

Record excerpt, results attached:
NC(N)=NCCCCN=C(N)N    FALSE
NCCCNCCSP(=O)(O)O    FALSE
CN=C(N)NCCCC(N)C(=O)O (stereo unspecified)    FALSE
COC[C@]12CN(C=O)C3[C@@H]4[C@H](OC)C1[C@]3(C1CC3(O)C(OC)C(O)C4(OC(C)=O)C1C3OC(=O)c1ccccc1)[C@@H](OC)C[C@H]2O (stereo partly specified)    FALSE
Nc1ccc(Oc2ccc(Cl)cc2C2CCCCC2)nc1    TRUE

Task: Hi, sorry to bother you, what did the test record for `NCCCCNCCCN` ?
Result: FALSE

The measured values listed here are drawn from PubChem BioAssay AID1159580.
